Test system: normal lipemic CFY-rat
Assay: Normolipemic test (serum cholesterol and triglycerides)
Format: in vivo
Conditions: 100 mg/kg oral, 14 days, 24 h after last administration
Reported Serum Cholesterol is given for each of the following compounds.
Parameter: Serum Cholesterol (mg %)

Compound | Measured Number
CC(Oc1ccc(Cl)cc1)C(=O)N1C(C(=O)O)C(C)(C)SC1(C)C (centres unmarked) | 95.8
CC(C)(Oc1ccc(Cl)cc1)C(=O)NCC1NC(C(=O)O)C(C)(C)S1 (centres unmarked) | 81.8
CC(C)(Oc1ccc(Cl)cc1)C(=O)NCC1SC(C)(C)C(C(=O)O)N1C(=O)COc1ccc(Cl)cc1 (centres unmarked) | 89.4
CC1(C)SC(C)(C)N(C(=O)COc2ccc(Cl)cc2)C1C(=O)O (centres unmarked) | 87.8
CC(C)(Oc1ccc(Cl)cc1)C(=O)N1C(C(=O)O)C(C)(C)SC1(C)C (centres unmarked) | 93.1
